- TARGET_SYSTEM: KHK (Homo sapiens (Human), UniProt P50053)
- Sequence (P50053 whole entry): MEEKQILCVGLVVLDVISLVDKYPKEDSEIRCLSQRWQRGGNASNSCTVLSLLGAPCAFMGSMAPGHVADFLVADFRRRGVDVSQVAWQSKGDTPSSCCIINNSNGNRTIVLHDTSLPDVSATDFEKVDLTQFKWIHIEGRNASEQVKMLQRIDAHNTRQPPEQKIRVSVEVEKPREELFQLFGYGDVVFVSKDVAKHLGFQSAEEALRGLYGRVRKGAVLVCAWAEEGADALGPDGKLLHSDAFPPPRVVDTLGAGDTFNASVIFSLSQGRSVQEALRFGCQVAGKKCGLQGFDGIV
pIC50: −log10 of the molar value.
Label rule, in plain words: pIC50 of 6 and up is MET, under 6 is NOT MET.

[in] Test whether the molecule CCc1nn(-c2ccccc2)c2cc(N3CC4CNCC4C3)ccc12 (centres unmarked) [Compound 50] records pIC50 of 6 or higher.
[out] NOT MET

[in] Confirm if pIC50 reported for the molecule CSc1nn(-c2ccccc2)c2cc(C=CC3CCCN3)ccc12 (centres unmarked) [Compound 175] is 6 or above.
[out] MET

###

Structures can show the parent of a compound that is named as a salt.
Recorded IC50 values (KHK (Homo sapiens (Human))) are given below.
Give the value, in units of µM, as a plain number.

// solved cases for IC50 follow
COc1nn(-c2ccccc2)c2cc(N3CCN(c4ccncc4)CC3)ccc12 [Compound 77, hydrochloride]    8.1
CSc1nn(-c2ccccc2)c2cc(NC(=O)C3CCCNC3)ccc12 (stereo not shown) [Compound 12, hydrochloride]    0.31
Cc1nn(-c2ccccc2)c2cc(N3CC(N4CCNCC4)C3)ccc12 [Compound 60, hydrochloride]    2.3
CSc1nn(-c2cccc(C)c2)c2cc(C3=CCNCC3)ccc12    0.03
CCc1nn(-c2ccccc2)c2nc(C3CCN(c4ccncc4)CC3)nc(O)c12    1.67
CCc1nn(-c2ccccc2)c2cc(N3CCN(C4CCNCC4)CC3)ccc12 [Compound 46, hydrochloride]    0.56
CCc1nn(-c2ccccc2)c2cc(NC(=O)c3cccc(C(=N)N)c3)ccc12 [Compound 40, acetate]    0.68
CSc1nn(-c2ccc(F)cc2)c2cc(C3=CCNCC3)ccc12    0.23
COc1nn(-c2ccccc2)c2cc(NC(=O)c3ccc4[nH]cnc4c3)ccc12    4.5
Cc1nn(-c2ccccc2)c2cc(-c3ccc(N4CCNCC4)cc3)ccc12 [Compound 58, hydrochloride]    7.5

[in] Lab request: please report IC50 under test system KHK (Homo sapiens (Human)) for CSc1nn(-c2ccccc2)c2cc(N3CCC(N4CCNCC4)CC3)ccc12 [Compound 20, hydrochloride];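 also: primary screen measuring inhibition of KHK-catalysed conversion of D-fructose into fructose 1-phosphate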
[out] 0.67
